# target: rat H1 receptor (Rattus norvegicus, UniProt P31390)
# Construct: An H1 receptor membrane preparation was prepared from rat cerebrum; from tissue; host or cells: rat cerebrum
# Sequence (P31390 whole entry): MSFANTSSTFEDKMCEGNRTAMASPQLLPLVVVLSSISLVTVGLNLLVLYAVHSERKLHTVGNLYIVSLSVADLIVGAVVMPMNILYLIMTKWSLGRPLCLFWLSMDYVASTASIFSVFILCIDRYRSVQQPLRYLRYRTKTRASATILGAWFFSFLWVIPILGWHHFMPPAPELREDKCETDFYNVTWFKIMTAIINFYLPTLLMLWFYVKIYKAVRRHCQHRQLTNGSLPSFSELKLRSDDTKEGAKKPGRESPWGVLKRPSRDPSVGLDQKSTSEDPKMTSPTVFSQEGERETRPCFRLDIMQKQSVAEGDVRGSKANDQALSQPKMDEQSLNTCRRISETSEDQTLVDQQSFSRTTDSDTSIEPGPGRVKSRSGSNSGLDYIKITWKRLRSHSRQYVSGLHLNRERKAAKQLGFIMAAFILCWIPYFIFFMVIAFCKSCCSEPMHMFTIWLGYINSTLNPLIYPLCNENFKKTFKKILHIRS
# experimentalProtocol: Rat H1 receptor affinity test (Test Example 1)
# Format: binding
# assayConditions: rat cerebrum membrane preparation, [3H]-pyrilamine 2 nmol/L
property: pIC50
The read-out pIC50 is expressed as -log10 of concentration in moles per litre.

Q: Using the record for Cc1ccc(C(OC2CCN(Cc3ccc(C(=O)O)o3)CC2)c2ccccc2)cc1 (stereo not shown) [Example 46] , report its pIC50.
Result: 7.17

Q: Which value of pIC50 has been reported for O=C(O)c1ccc(CN2CCC(OC(c3ccccc3)c3ccc(Cl)cc3)CC2)o1 (stereo not shown) [Example 43] in the records?
Result: 7.74

Q: Returns the measured pIC50 for the input molecule. Input: O=C(O)c1ccnc(CN2CCC(OC(c3ccccc3)c3ccc(Cl)cc3)CC2)c1 (stereo not shown) [Example 42]
Result: 7.62

Q: // returns reported pIC50 for input O=C(O)c1cccc(CN2CCC(OC(c3ccccc3)c3ccc(F)c(F)c3)CC2)n1 (stereo not shown) [Example 48]
Result: 7.28
